Values were extracted from patent US5066818A.

test: Photochromic response on optical bench of naphthopyrans imbibed into polymer test samples; assay type: physicochemical; settings: homopolymer of diethylene glycol bis(allyl carbonate); 150 watt Xenon lamp, about one sun; twenty minutes exposure

| compound | Δ OD at SATURATION |
| --- | --- |
| C1=CC(c2ccccc2)(c2ccccc2)Oc2ccc3ccccc3c21 [compound 1, 3,3-diphenyl-3H-naphtho[2,1-b]pyran] | 0.36 |
| COc1ccc(C2(c3ccc(C)cc3)C=Cc3c(ccc4ccccc34)O2)cc1 (stereo not drawn) | 0.21 |
| COc1ccc(C2(c3c(F)cccc3F)C=Cc3c(ccc4ccccc34)O2)cc1 (stereo not drawn) | 2.23 |
| FC(F)(F)c1ccc(C2(c3ccccc3)C=Cc3ccc4ccccc4c3O2)cc1 (stereo not drawn) | 1.63 |
| FC(F)(F)c1cccc(C2(c3cccc(C(F)(F)F)c3)C=Cc3ccc4ccccc4c3O2)c1 | 1.07 |
| COc1ccc(C2(c3ccccc3)C=Cc3c(ccc4ccccc34)O2)c(OC)c1 (stereo not drawn) | 1.42 |
